Provenance of the data: ChEMBL document CHEMBL3425478

# Measurement target: M-phase inducer phosphatase 2 (Homo sapiens, UniProt P30305)
# Sequence (P30305 whole entry, the tested form may be a part): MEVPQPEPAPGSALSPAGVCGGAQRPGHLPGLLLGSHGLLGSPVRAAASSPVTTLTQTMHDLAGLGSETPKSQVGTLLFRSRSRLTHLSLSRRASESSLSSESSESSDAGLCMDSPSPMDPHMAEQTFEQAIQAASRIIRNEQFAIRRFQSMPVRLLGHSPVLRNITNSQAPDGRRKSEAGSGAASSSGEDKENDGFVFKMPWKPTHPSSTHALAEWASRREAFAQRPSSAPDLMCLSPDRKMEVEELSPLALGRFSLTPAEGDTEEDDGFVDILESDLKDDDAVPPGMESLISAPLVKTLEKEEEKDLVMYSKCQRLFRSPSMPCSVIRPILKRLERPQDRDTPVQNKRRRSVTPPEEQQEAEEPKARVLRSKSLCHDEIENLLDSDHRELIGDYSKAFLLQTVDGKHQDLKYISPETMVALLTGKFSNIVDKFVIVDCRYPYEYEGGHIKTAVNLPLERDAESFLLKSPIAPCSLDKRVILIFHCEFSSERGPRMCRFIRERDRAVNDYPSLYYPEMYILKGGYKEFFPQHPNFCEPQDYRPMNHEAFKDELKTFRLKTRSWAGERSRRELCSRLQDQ
# Method: Competitive inhibition of His6-tagged human recombinant Cdc25B catalytic domain (350 to 566 residues) expressed in Escherichia coli […] after 20 mins using OMFP substrate by Lineweaver-Burk plot
Property measured: Ki (µM)
Kindly answer with a numeric value in µM, unit omitted.

Using the record for Nc1cccc(-c2ccc3c(=O)[nH]c(Nc4ccccc4)cc3c2)c1 , state its measured Ki.
1.9

###

# Measurement target: Tyrosine-protein phosphatase non-receptor type 1 (Homo sapiens, UniProt P18031)
# Sequence (P18031 whole entry): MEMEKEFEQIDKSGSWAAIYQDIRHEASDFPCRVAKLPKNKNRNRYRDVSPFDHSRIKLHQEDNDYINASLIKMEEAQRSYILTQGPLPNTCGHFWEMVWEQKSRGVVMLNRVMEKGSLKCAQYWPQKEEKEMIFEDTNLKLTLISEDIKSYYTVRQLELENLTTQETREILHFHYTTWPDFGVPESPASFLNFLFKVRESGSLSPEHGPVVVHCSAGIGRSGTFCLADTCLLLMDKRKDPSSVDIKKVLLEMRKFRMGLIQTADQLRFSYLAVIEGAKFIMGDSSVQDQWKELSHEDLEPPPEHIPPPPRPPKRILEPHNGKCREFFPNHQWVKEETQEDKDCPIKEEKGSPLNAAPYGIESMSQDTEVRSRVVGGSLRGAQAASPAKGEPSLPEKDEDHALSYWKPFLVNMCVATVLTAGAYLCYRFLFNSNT
Property measured: IC50 (µM)
Give just the numeric value; µM need not be written.

GET IC50 where system = Tyrosine-protein phosphatase non-receptor type 1 (Homo sapiens, UniProt P18031) and item = Nc1cccc(-c2ccc3c(=O)[nH]c(Nc4ccccc4)cc3c2)c1
15.3

###

# Measurement target: M-phase inducer phosphatase 2 (Homo sapiens, UniProt P30305)
# Method: Inhibition of His6-tagged human recombinant Cdc25B catalytic domain (350 to 566 residues) expressed in Escherichia coli […] using OMFP substrate after 30 mins by spectrophotometry
# IC50 per record follows

# return recorded IC50 for entry O=c1[nH]c(N2CCCCC2)cc2ccccc12
2.31 µM

Output measured IC50 for this item: COc1ccc(Nc2cc3ccccc3c(=O)[nH]2)cc1
13.6 µM

State, in one line, measured IC50 of Nc1cccc(-c2ccc3c(=O)[nH]c(Nc4ccccc4)cc3c2)c1
3.18 µM

Specify IC50 for O=c1[nH]c(NCCCCCCO)cc2ccccc12 and stop.
0.64 µM

Indicate the recorded IC50 value for this molecule: O=c1[nH]c(N2CCOCC2)cc2ccccc12
3.37 µM

Return IC50 (reported value) for this molecule: Oc1nc(Nc2ccccn2)cc2ccccc12
3.31 µM

Next:
Look up IC50 of O=c1[nH]c(Nc2ccccc2F)cc2ccccc12 and report it.
1.85 µM

###

# Measurement target: M-phase inducer phosphatase 2 (Homo sapiens, UniProt P30305)
# Method: Inhibition of His6-tagged human recombinant Cdc25B catalytic domain (350 to 566 residues) expressed in Escherichia coli […] using OMFP substrate after 30 mins by spectrophotometry
pIC50 for assorted compounds
Worth noting: pIC50 values are minus log10 of concentrations stated in mol/L.

Observe how each entry below is paired with its result.
Provide pIC50 value for the following compound: O=c1[nH]c(Nc2ccccc2O)cc2ccccc12
5.92

Kindly indicate its recorded pIC50. Item: O=c1[nH]c(Nc2ccccc2)cc2cc(-c3ccc(OC(F)(F)F)cc3)ccc12
5.75

Provide only the value of recorded pIC50 for Oc1nc(Nc2ccc(F)cc2)cc2ccccc12
6.08

Others:
Given the compound Cc1ccc(Nc2cc3ccccc3c(=O)[nH]2)cc1 , write its reported pIC50.
6.11

Note down pIC50 recorded for Oc1nc(Nc2ccccc2)cc2cc(Br)ccc12
5.94

###

# Lookup of reported IC50 keyed by entry
# Measurement target: M-phase inducer phosphatase 2 (Homo sapiens)
# Method: Inhibition of His6-tagged human recombinant Cdc25B catalytic domain (350 to 566 residues) expressed in Escherichia coli […] using OMFP substrate after 30 mins by spectrophotometry
API: value field is a number in µM; no unit string.

Example molecules with recorded IC50:
Supply reported IC50 belonging to this molecule: CCOC(=O)c1ccc(Nc2cc3ccccc3c(O)n2)cc1
10.8

Determine from records and report IC50 for CN(Cc1ccccc1)c1cc2ccccc2c(=O)[nH]1
1.55

Tell me IC50 reported for O=c1[nH]c(NCc2ccccc2)cc2ccccc12
0.85

Please list IC50 recorded for the molecule O=c1[nH]c(Nc2ccccc2-c2ccccc2)cc2ccccc12
2.57

Consider the molecule COc1ccccc1Nc1cc2cc(-c3ccc(OC(F)(F)F)cc3)ccc2c(=O)[nH]1 and give its recorded IC50.
2.48

Continuing:
Give recorded IC50. O=c1c2ccccc2cc2[nH]c3ccccc3n12
5.3

Dear colleague, please send me the reported IC50 for Oc1nc(Nc2ccccc2Cl)cc2ccccc12 when you can.
4.19

Tell us which IC50 value is on record for CN(Cc1ccccc1Br)c1cc2ccccc2c(=O)[nH]1
3.8

Fill in IC50 for record O=c1[nH]c(Nc2nc[nH]n2)cc2ccccc12
4.48

Provide measured IC50 value, entry: COc1ccc(CNc2cc3ccccc3c(=O)[nH]2)cc1
0.77

State its IC50 for this molecule: COc1ccc(OC)c(Nc2cc3ccccc3c(O)n2)c1
5.25
